Entries annotated with measured pIC50
target: 5-hydroxytryptamine receptor 2A (Rattus norvegicus, UniProt P14842)
Sequence (P14842 whole entry): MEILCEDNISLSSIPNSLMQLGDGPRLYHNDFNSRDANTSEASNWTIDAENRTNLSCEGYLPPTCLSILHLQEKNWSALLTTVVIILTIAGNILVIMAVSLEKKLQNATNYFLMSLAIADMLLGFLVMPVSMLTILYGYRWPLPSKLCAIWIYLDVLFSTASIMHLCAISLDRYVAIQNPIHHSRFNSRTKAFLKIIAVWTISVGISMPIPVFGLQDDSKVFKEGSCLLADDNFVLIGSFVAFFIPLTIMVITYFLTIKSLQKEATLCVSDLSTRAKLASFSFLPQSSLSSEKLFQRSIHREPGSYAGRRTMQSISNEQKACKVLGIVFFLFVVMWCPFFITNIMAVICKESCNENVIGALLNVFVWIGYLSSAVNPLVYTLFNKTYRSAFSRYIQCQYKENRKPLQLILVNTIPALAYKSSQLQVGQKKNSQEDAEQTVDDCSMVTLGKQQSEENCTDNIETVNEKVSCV
pIC50: −log10 of the molar value.

| smiles-string | pIC50 |
| --- | --- |
| CN1CCN(C2=Nc3cc(OS(=O)(=O)C(F)(F)F)ccc3Nc3ccccc32)CC1 | 6.26 |
| CN1CCN(C2=Nc3ccccc3Nc3ccc(OS(=O)(=O)C(F)(F)F)cc32)CC1 | 8.10 |

----------
molecular target: Muscarinic acetylcholine receptor M1 (Homo sapiens); test: Inhibitory binding of [3H]pirenzepine to human Muscarinic acetylcholine receptor M1 in membranes from CHO-K1 cells
Sequence (P11229 whole entry): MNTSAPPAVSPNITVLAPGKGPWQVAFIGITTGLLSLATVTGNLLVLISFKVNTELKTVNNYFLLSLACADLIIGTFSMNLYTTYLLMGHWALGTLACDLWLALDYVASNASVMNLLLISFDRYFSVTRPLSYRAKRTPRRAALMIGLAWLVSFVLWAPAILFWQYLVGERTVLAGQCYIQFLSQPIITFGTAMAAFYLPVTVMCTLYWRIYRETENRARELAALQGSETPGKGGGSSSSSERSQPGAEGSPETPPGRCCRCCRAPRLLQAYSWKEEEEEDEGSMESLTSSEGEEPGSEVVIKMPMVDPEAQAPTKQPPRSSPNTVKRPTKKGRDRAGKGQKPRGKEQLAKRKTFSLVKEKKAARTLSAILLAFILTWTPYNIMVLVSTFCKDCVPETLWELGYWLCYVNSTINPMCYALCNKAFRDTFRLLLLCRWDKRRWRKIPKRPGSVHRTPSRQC
Entries annotated with measured IC50
value-kind: IC50 (nM)

| smiles-string | assayed-system | quantitative-readout |
| --- | --- | --- |
| CN1CCN(C2=Nc3ccccc3Nc3ccc(OS(=O)(=O)C(F)(F)F)cc32)CC1 | Muscarinic acetylcholine receptor M1 (Homo sapiens) | 1200 |
| COc1ccc2c(c1)C(N1CCN(C)CC1)=Nc1ccccc1N2 | Muscarinic acetylcholine receptor M1 (Homo sapiens) | 39 |
| CN1CCN(C2=Nc3ccccc3Nc3ccc(O)cc32)CC1 | Muscarinic acetylcholine receptor M1 (Homo sapiens) | 37 |
| COc1ccc2c(c1)N=C(N1CCN(C)CC1)c1ccccc1N2 | Muscarinic acetylcholine receptor M1 (Homo sapiens) | 19 |
| CN1CCN(C2=Nc3ccccc3Nc3ccc(Cl)cc32)CC1 | Muscarinic acetylcholine receptor M1 (Homo sapiens) | 6 |
| CN1CCN(C2=Nc3cc(OS(=O)(=O)C(F)(F)F)ccc3Nc3ccccc32)CC1 | Muscarinic acetylcholine receptor M1 (Homo sapiens) | 35 |
| CN1CCN(C2=Nc3cc(O)ccc3Nc3ccccc32)CC1 | Muscarinic acetylcholine receptor M1 (Homo sapiens) | 27 |
